biological target: Torsin-1A-interacting protein 1 (Homo sapiens) (UniProt Q5JTV8); experiment: LAP1 binders from COS7 cell lysate, primary screen, small-molecule microarray, 635/667 nm fluorescence (AID 1116); conditions: COS7-hLAP1 lysate binding, 635 nm fluorescence, higher = more signal
Sequence (Q5JTV8 whole entry, looked up): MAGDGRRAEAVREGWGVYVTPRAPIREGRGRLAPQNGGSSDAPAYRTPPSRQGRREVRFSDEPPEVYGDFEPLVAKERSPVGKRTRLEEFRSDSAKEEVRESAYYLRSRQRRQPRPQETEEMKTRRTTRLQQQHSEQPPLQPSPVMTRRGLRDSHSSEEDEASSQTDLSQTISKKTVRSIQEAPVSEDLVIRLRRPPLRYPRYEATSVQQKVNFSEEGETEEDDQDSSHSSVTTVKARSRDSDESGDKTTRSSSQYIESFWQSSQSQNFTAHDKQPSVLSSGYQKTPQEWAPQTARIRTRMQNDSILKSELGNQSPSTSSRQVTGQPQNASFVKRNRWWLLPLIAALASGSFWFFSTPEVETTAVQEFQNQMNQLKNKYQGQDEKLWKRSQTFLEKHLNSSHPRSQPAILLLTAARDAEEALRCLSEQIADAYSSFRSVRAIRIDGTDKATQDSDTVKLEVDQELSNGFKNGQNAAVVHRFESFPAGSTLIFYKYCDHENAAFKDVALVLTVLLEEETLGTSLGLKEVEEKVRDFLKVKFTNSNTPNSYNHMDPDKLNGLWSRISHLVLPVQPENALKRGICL
READOUT_LABEL: composite z-score

COMPOUND: CCOC(=O)[C@H]1[C@@H]2C(=O)N3CCC[C@H]3[C@H](O[Si](C(C)C)(C(C)C)C(C)C)[C@H]2C=C2CCN(S(=O)(=O)c3ccc(C)cc3)C[C@H]21
REPORTED: 0.694
//
COMPOUND: C=CCOC(=O)[C@H]1[C@@H]2C(=O)O[C@@H](c3ccccc3)[C@@H](c3ccccc3)N2[C@@H](c2ccc(OCCOC(=O)[C@@H]3C[C@@H]4C(=O)N[C@@H](CCCCN(C)C)C(=O)N4[C@@H]3c3ccc(O)cc3)cc2)[C@]12C(=O)Nc1ccccc12
REPORTED: 1.17
//
COMPOUND: C=CCC(OC(C)=O)[C@@H]1[C@@H](N(Cc2cccc3ccccc23)C(=O)Cc2ccc(OC)cc2)c2cc(OCCCO)ccc2N1C(=O)c1ccc2ccccc2n1 (stereo partly drawn)
REPORTED: 0.307
